The entries below are paired with their reported viability, T/C.
- Test system: NCI/ADR-RES complex spheroid viability
- protocol-description: Anticancer human tumor NCI/ADR-RES cell line growth inhibition;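 note: spheroids exposed to compounds for 7 days; 100% = DMSO vehicle treated spheroids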
- measurement-context: second compound 0.1 µM; first compound 0.03 µM; hits give low values
Unit % implied. Number only.

**Query** What value of measured viability, T/C is listed for COc1cc(C2c3cc4c(cc3C(OC3OC5COC(C)OC5C(O)C3O)C3COC(=O)C23)OCO4)cc(OC)c1O (centres undefined) + NC1CC1c1ccc(-c2cccc(O)c2)cc1 ?
**Result** 112

**Query** // next record Nc1ccn(C2OC(CO)C(O)C2(F)F)c(=O)n1 (centres undefined) + NC1CCC(NC2CC2c2ccccc2)CC1
**Result** 2.78

**Query** How about Nc1ccccc1NC(=O)c1ccc(CNC(=O)OCc2cccnc2)cc1 + NC1CCC(NC2CC2c2ccccc2)CC1 ?
**Result** 96.8

**Query** Follow-up entry: O=C(C=Cc1cccc(S(=O)(=O)Nc2ccccc2)c1)NO + NC1CCC(NC2CC2c2ccccc2)CC1
**Result** 85.7

###

- Tested on: NCI/ADR-RES complex spheroid viability
- protocol-description: Anticancer human tumor NCI/ADR-RES cell line growth inhibition;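 note: spheroids exposed to compounds for 7 days; 100% = DMSO vehicle treated spheroids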
- measurement-context: second compound 10 µM; first compound 0.00316 µM; hits give low values
Sorting guide: entries reporting viability, T/C beneath 80% go in the yes pile, the rest go in the no pile.

{"compound": "CC(C)CC(NC(=O)CNC(=O)c1cc(Cl)ccc1Cl)B1OC(=O)CC(CC(=O)O)(C(=O)O)O1 (centres undefined) + NC1CCC(NC2CC2c2ccccc2)CC1", "class-name": "no"}

**Query** Here's an entry: CC(C)CC(NC(=O)C(Cc1ccccc1)NC(=O)c1cnccn1)B(O)O (centres undefined) + NC1CC1c1ccc(-c2cccc(O)c2)cc1 . Is its viability, T/C below 80%?
**Result** yes

**Query** Try O=C(C=Cn1cnc(-c2cc(C(F)(F)F)cc(C(F)(F)F)c2)n1)NNc1cnccn1 + NC1CCC(NC2CC2c2ccccc2)CC1 next.
**Result** yes

**Query** // repeat for CC1COCCN1c1cc(-c2ccnn2C)c2ccnc(-c3ccn[nH]3)c2n1 (centres undefined) + NC1CC1c1ccc(-c2cccc(O)c2)cc1 and report
**Result** yes

**Query** # iterate: CC(C)CC(NC(=O)C(Cc1ccccc1)NC(=O)c1cnccn1)B(O)O (centres undefined) + NC1CCC(NC2CC2c2ccccc2)CC1
**Result** no

**Query** Repeat with Nc1ncn(C2CC(O)C(CO)O2)c(=O)n1 (centres undefined) + NC1CCC(NC2CC2c2ccccc2)CC1
**Result** yes

**Query** What do we get for CC[C@@]1(O)C(=O)OCc2c1cc1n(c2=O)Cc2cc3c(CN(C)C)c(O)ccc3nc2-1 + NC1CC1c1ccc(-c2cccc(O)c2)cc1 ?
**Result** yes

###

- System: NCI/ADR-RES complex spheroid viability
- protocol-description: Anticancer human tumor NCI/ADR-RES cell line growth inhibition;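 note: spheroids exposed to compounds for 7 days; 100% = DMSO vehicle treated spheroids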
- measurement-context: second compound 0.1 µM; first compound 0.000316 µM; hits give low values
- Excerpt: Multicellular complex tumor spheroid response to LSD1 Inhibitor Iadademstat in combination with a variety of drugs and investigational agents in selected tumor cell lines The current study was undertaken to assess response to LSD1 inhibitors in combination with standard-of-care drugs and investigational agents in solid tumor complex spheroid models as well as in the K-562 leukemia. […] Compounds. […] If the clinical Cmax for an agent had not been determined, the highest concentration tested was 10 microM. […]
The following molecules are listed with their measured viability, T/C values.
All answers are understood in %, so give the number only.

{"molecule": "CC(C)CC(NC(=O)CNC(=O)c1cc(Cl)ccc1Cl)B1OC(=O)CC(CC(=O)O)(C(=O)O)O1 (centres undefined) + NC1CC1c1ccc(-c2cccc(O)c2)cc1", "viability, T/C (%)": 101}
{"molecule": "CC(C)CC(NC(=O)C(Cc1ccccc1)NC(=O)c1cnccn1)B(O)O (centres undefined) + NC1CC1c1ccc(-c2cccc(O)c2)cc1", "viability, T/C (%)": 110}
{"molecule": "CC(C)CC(NC(=O)C(Cc1ccccc1)NC(=O)c1cnccn1)B(O)O (centres undefined) + NC1CCC(NC2CC2c2ccccc2)CC1", "viability, T/C (%)": 103}

Now let's try a different one.
**Query** Given the molecule Cn1ncnc1C1c2n[nH]c(=O)c3cc(F)cc(c23)NC1c1ccc(F)cc1 (centres undefined) + NC1CC1c1ccc(-c2cccc(O)c2)cc1 , what is its reported viability, T/C?
**Result** 101
